# pA2 per record follows
Target: Adrenergic receptor alpha-1 (Rattus norvegicus, UniProt P15823+P23944+P43140)
Assay: Antagonistic activity against alpha-1 adrenergic receptor in isolated rat anococcygeus muscle
Assay type: functional, tissue-based

>  <Input smiles>
CN([C@@H]1CCN2CCc3ccccc3[C@@H]2C1)S(=O)(=O)c1cccc2ccccc12

>  <pA2>
7.1

$$$$
>  <Input smiles>
COc1ccc(S(=O)(=O)N(C)[C@@H]2CCN3CCc4ccccc4[C@@H]3C2)cc1

>  <pA2>
6.5

$$$$
>  <Input smiles>
CN(C)S(=O)(=O)N(C)[C@@H]1CCN2CCc3ccccc3[C@@H]2C1

>  <pA2>
5.95

$$$$
>  <Input smiles>
CN([C@@H]1CCN2CCc3ccccc3[C@@H]2C1)S(=O)(=O)CC(F)(F)F

>  <pA2>
5.93

$$$$
>  <Input smiles>
Cc1ccccc1S(=O)(=O)N(C)[C@@H]1CCN2CCc3ccccc3[C@@H]2C1

>  <pA2>
6.27

$$$$

====

Biological target: Adrenergic receptor alpha-2 (Rattus norvegicus, UniProt P22086+P19328+P22909)
Experiment: Antagonistic activity against alpha-2 adrenergic receptor in rat vas deferens
Assay type: functional, tissue-based
Observation type: pA2

>  <Input smiles>
CN([C@H]1CCN2CCc3ccccc3[C@H]2C1)S(C)(=O)=O

>  <Test target>
Adrenergic receptor alpha-2 (Rattus norvegicus, UniProt P22086+P19328+P22909)

>  <Endpoint result>
< 5

$$$$
>  <Input smiles>
CC(C)CS(=O)(=O)N(C)[C@H]1CCN2CCc3ccccc3[C@H]2C1

>  <Test target>
Adrenergic receptor alpha-2 (Rattus norvegicus, UniProt P22086+P19328+P22909)

>  <Endpoint result>
< 5

$$$$
>  <Input smiles>
CCCCCCCCCCCCS(=O)(=O)N(C)[C@@H]1CCN2CCc3ccccc3[C@@H]2C1

>  <Test target>
Adrenergic receptor alpha-2 (Rattus norvegicus, UniProt P22086+P19328+P22909)

>  <Endpoint result>
< 5

$$$$

Just for reference, ChEMBL document CHEMBL1124159 is where these values come from.
